biological target: mGlu4 (Homo sapiens (Human)); experiment: Agonist activity on mGlu4 in transfected HEK293 cells, intracellular calcium release (Fluo4-AM); format: cell-based; settings: transfected cells, calcium release; read-out: mGlu4 EC50 μM (n)
# reported EC50; entries follow
Dear colleague, please return just the value in µM, with no unit written.

As a guide, the following entries are already answered.
N[C@@H](CCP(=O)(O)C(O)c1ccc(/C=C/C(=O)O)cc1)C(=O)O (stereo partly shown) [Derivative 11]; 0.48
N[C@@H](CCP(=O)(O)C(O)c1ccc(OCC(=O)O)cc1)C(=O)O (stereo partly shown) [Derivative 2]; 0.11
N[C@@H](CCP(=O)(O)C(O)c1ccc(SCC(=O)O)cc1)C(=O)O (stereo in doubt) [Derivative 26]; 0.21

Read the next record carefully.
So what does the record say about EC50 for N[C@@H](CCP(=O)(O)C(O)c1cc(Cl)c(OCC(=O)O)c(Cl)c1)C(=O)O (stereo partly shown) [Derivative 9] ? 0.38

* * *

molecular target: mGlu6 (Homo sapiens (Human), UniProt O15303); experiment: Agonist activity on mGlu6 in transfected HEK293 cells, intracellular calcium release (Fluo4-AM); type: cell-based; conditions: transfected cells, calcium release; read-out: mGlu6 EC50 μM (n)
Sequence (O15303 25-877): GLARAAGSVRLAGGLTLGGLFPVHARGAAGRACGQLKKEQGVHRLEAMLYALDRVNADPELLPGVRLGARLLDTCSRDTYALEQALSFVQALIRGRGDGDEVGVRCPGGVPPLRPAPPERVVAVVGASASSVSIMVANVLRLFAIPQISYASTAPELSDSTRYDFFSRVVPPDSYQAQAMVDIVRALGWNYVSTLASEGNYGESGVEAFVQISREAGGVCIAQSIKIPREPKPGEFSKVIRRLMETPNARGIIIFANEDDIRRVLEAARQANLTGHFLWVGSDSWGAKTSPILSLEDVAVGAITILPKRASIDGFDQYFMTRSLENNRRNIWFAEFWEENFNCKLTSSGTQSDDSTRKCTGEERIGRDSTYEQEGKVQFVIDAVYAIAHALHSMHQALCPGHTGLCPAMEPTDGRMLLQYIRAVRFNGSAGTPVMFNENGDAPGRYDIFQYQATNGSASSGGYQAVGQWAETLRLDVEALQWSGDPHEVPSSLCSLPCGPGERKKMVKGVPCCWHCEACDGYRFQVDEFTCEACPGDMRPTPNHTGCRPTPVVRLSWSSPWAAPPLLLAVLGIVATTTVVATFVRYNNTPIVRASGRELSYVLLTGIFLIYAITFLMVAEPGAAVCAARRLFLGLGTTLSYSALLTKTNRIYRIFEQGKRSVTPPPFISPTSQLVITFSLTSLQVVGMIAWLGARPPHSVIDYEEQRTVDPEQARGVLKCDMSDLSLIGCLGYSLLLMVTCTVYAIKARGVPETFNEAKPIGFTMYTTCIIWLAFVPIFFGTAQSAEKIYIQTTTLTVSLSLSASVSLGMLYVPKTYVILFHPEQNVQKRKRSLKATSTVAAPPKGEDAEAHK
Observed Property: EC50 (µM)
Dear colleague, please return just the value in µM, with no unit written.

COc1cc(C(O)P(=O)(O)CC[C@H](N)C(=O)O)cc([N+](=O)[O-])c1OCC(=O)O (stereo partly drawn); 5.95

Read the next record carefully.
So what does the record say about EC50 for COc1cc(C(O)P(=O)(O)CC[C@H](N)C(=O)O)cc(OC)c1OCC(=O)O (stereo partly drawn) ? 9

* * *

# reported mGlu7/4 EC50 ratio; entries follow
tested on: mGlu7; experiment: Agonist activity on mGlu7 in transfected HEK293 cells, intracellular calcium release (Fluo4-AM); type: cell-based; settings: ratio of mGlu7 EC50 to mGlu4 EC50
Reply with just the number.

N[C@@H](CCP(=O)(O)C(O)c1ccc(OCP(=O)(O)O)cc1)C(=O)O (stereo partly shown); 92
N[C@@H](CCP(=O)(O)C(O)c1ccc(OCC(=O)O)cc1)C(=O)O (stereo partly shown); 100
N[C@@H](CCP(=O)(O)C(O)c1ccc(OCC(=O)O)c(C(=O)O)c1)C(=O)O (stereo in doubt); 16
N[C@@H](CCP(=O)(O)C(O)c1ccc(OCC(=O)O)c([N+](=O)[O-])c1)C(=O)O (stereo in doubt); 43
CCOc1cc(C(O)P(=O)(O)CC[C@H](N)C(=O)O)ccc1OCC(=O)O (stereo in doubt); 36

Read the next record carefully.
So what does the record say about mGlu7/4 EC50 ratio for N[C@@H](CCP(=O)(O)Cc1ccc(OCC(=O)O)c(OC(F)(F)F)c1)C(=O)O (stereo in doubt) ? 13

* * *

target: mGlu4 (Homo sapiens (Human), UniProt Q14833); test: Agonist activity on mGlu4 in transfected HEK293 cells, intracellular calcium release (Fluo4-AM); format: cell-based; conditions: transfected cells, calcium release; read-out: mGlu4 EC50 μM (n)
Sequence (Q14833 33-912): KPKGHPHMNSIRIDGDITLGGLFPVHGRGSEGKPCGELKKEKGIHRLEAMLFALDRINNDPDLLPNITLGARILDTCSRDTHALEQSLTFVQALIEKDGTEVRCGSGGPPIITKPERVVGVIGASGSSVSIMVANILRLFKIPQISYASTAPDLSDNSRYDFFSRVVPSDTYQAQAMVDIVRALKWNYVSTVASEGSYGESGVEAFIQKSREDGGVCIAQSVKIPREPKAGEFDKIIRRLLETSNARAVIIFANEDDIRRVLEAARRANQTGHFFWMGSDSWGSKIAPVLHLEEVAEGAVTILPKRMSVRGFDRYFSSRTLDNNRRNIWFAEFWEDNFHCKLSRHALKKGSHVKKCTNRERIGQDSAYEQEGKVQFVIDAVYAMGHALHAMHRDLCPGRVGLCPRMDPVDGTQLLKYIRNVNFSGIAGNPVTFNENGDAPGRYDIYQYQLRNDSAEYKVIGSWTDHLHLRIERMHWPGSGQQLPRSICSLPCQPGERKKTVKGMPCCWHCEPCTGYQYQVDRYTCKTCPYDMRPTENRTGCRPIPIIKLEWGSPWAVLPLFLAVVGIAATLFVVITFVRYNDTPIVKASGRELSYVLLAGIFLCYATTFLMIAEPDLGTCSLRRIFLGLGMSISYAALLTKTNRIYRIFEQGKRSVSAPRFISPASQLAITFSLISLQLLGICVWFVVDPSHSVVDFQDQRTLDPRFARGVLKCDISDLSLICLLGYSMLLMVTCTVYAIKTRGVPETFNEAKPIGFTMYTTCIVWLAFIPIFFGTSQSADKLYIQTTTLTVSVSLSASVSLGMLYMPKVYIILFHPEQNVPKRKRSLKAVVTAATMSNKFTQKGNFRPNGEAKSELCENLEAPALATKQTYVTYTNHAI
Where a name gives a salt, the structure may show the parent alone.
Returns: string. Value is 1 (yes) if measured EC50 is below 1 µM, and 0 (no) if it is greater than or equal to it.

Problem: For the compound N[C@@H](CCP(=O)(O)C(O)c1cccc(OCC(=O)O)c1)C(=O)O (single isomer, unassigned) [Derivative 17, Hydrochloride] , is EC50 under 1 µM? 0 (no)

Continue with COc1cc(C(O)P(=O)(O)CC[C@H](N)C(=O)O)cc(Cl)c1OCC(=O)O (some centres unmarked) 1 (yes)

Continue with N[C@@H](CCP(=O)(O)C(O)c1ccc(OCC(=O)O)c(C(=O)O)c1)C(=O)O (stereo in doubt) 0 (no)

Continue with N[C@@H](CCP(=O)(O)Cc1ccc(OCC(=O)O)c(OC(F)(F)F)c1)C(=O)O (stereo in doubt) 0 (no)

Continue with N[C@@H](CCP(=O)(O)C(O)c1ccc(OCC(=O)O)c(OCC(=O)O)c1)C(=O)O (some centres unmarked) 0 (no)

Continue with COc1cc(C(O)P(=O)(O)CC[C@H](N)C(=O)O)cc(F)c1OCC(=O)O (some centres unmarked) 1 (yes)

Continue with Cc1cc(C(O)P(=O)(O)CC[C@H](N)C(=O)O)cc(C)c1OCC(=O)O (some centres unmarked) 1 (yes)

Continue with N[C@@H](CCP(=O)(O)C(O)c1ccc(OCC(=O)O)c(O)c1)C(=O)O (stereo in doubt) 0 (no)

Continue with N[C@@H](CCP(=O)(O)C(O)c1ccc(SCC(=O)O)c([N+](=O)[O-])c1)C(=O)O (stereo in doubt) 0 (no)

Continue with COc1cc(CP(=O)(O)CC[C@H](N)C(=O)O)cc(Cl)c1OCC(=O)O (stereo in doubt) 0 (no)

Continue with COc1cc(C(O)P(=O)(O)CC[C@H](N)C(=O)O)cc(I)c1OCC(=O)O (some centres unmarked) 1 (yes)

Continue with N[C@@H](CCP(=O)(O)C(O)c1cccc(OCC(=O)O)c1)C(=O)O (single isomer, unassigned) [Derivative 16, Hydrochloride] 0 (no)

Continue with N[C@@H](CCP(=O)(O)C(O)c1ccc(OCC(=O)O)c(C(F)(F)F)c1)C(=O)O (stereo in doubt) 1 (yes)

These data points were gathered from patent US9212196B2.
